Documented MBC across a set of molecules
# Test system: Enterococcus faecalis
# experiment-description: Antibacterial activity against vancomycin-resistant Enterococcus faecalis 725B after 24 hrs
# Format: functional

A selection of reference data follows.
# smiles-repr, metric, reported-result
measured = [
    ("CC(C)[C@H](NC(=O)OCc1ccccc1)C(=O)Oc1ccc([N+](=O)[O-])cc1C(=O)Nc1ccc(Cl)cc1", "MBC", "> 466 µM"),
    ("CC(C)[C@H](NC(=O)OCc1ccccc1)C(=O)Oc1ccc(Cl)cc1C(=O)Nc1ccc([N+](=O)[O-])cc1", "MBC", "> 486 µM"),
]

Problem: Sample CC(C)[C@H](NC(=O)OCc1ccccc1)C(=O)Oc1ccc(Cl)cc1C(=O)Nc1ccc(C(F)(F)F)cc1 — what was its MBC?
Solution: > 466 µM

Problem: Using the record for O=C(Nc1ccc(Cl)c(Cl)c1)c1ccc(Cl)cc1O , report its MBC.
Solution: 25.3 µM

----------
# experiment-description: Selectivity index, ratio of LD50 for human THP1 cells to MIC for vancomycin-resistant Enterococcus faecalis 342B
# Type: toxicity
# condition: THP-1 cells, read-out: Selectivity Index
metric: selectivity ratio

Problem: selectivity ratio lookup needed for O=C(Nc1ccc(Cl)c(Cl)c1)c1ccc(Cl)cc1O , thanks.
Solution: 128

----------
This listing pairs compounds with measured MBC.
# Tested on: Enterococcus faecalis
# experiment-description: Antibacterial activity against vancomycin-resistant Enterococcus faecalis 725B after 24 hrs
# Assay type: functional
Numeric answer only, unit µM assumed.

Sample answers from the record:
# smiles-repr, subject-of-test, unit-label, MBC
records = [
    ("O=C(Nc1ccccc1)c1cc(Cl)ccc1O", "Enterococcus faecalis", "µM", 516),
    ("O=C(Nc1ccc([N+](=O)[O-])cc1)c1cc(Cl)ccc1O", "Enterococcus faecalis", "µM", 6.83),
]

Problem: Test system Enterococcus faecalis; read-out MBC; what value for CC1(C)S[C@@H]2[C@H](NC(=O)[C@H](N)c3ccccc3)C(=O)N2[C@H]1C(=O)O ?
Solution: 5.72

----------
# Test system: Enterococcus faecalis
# experiment-description: Antibacterial activity against vancomycin-resistant Enterococcus faecalis 342B after 24 hrs
# Format: functional
metric: MBC

Problem: // fetch Enterococcus faecalis MBC for CC(C)[C@H](NC(=O)OCc1ccccc1)C(=O)Oc1ccc([N+](=O)[O-])cc1C(=O)Nc1ccc(Cl)cc1
Solution: > 466 µM

----------
Measured MBC values are reported for all entries that follow.
# Test system: Enterococcus faecalis
# experiment-description: Antibacterial activity against vancomycin-resistant Enterococcus faecalis 725B after 24 hrs
# Type: functional

Guide cases for MBC, answers given:
# smiles-repr, reported-result
measured = [
    ("Cc1ccc(NC(=O)[C@@H](NC(=O)c2cc(Cl)ccc2O)C(C)C)cc1", "> 709 µM"),
    ("O=C(Nc1ccc(C(F)(F)F)cc1)c1cc(Cl)ccc1O", "25.3 µM"),
    ("COc1ccc(NC(=O)c2cc(Cl)ccc2OC(=O)[C@@H](NC(=O)OCc2ccccc2)C(C)C)cc1", "> 499 µM"),
]

Problem: Fill blank: measured MBC of the compound O=C(Nc1ccc(Cl)cc1)c1cc([N+](=O)[O-])ccc1O is ____.
Solution: > 874 µM

Problem: Reported MBC, compound CC(C)[C@H](NC(=O)c1ccc(Cl)cc1O)C(=O)Nc1ccc(Br)cc1 : ____
Solution: > 601 µM
